system: MS2 coat protein; test: apparent KD of MS2 coat protein; designed switch direction (-1 OFF switch, 1 ON switch): -1; higher = weaker reporter binding; conditions: input ligand: none
endpoint_name: apparent KD of MS2 coat protein (nM)
Give bare numbers, in nM.

monomer_sequence: CGAUGCUCGAAUCCACAUGAGGAUCACCCAUGUCGAGUUAGCGAGGAUAUCGGUGACACAUAGUACGAGAAGGCGCGAACCUGA [Ex NG3 #25] (Eterna round: R96, puzzle: Exclusion NG 3)
endpoint_name: apparent KD of MS2 coat protein
experimental_value: 34.8

Give apparent KD of MS2 coat protein for each of the items listed below.
1. GCGCAAACGCCAAAAGGCGAAACAACAUGAGGAUCACCCAUGUAGGAUAUCGAUUGCUUUGCAGUCGAGAAGGACAUGAUGCGC [JL ENG3 3.80 Mod 2] (Eterna round: R96, puzzle: Exclusion NG 3)
2. UGCGGGCUUUUGAGACCUCACAUGAGGAUCACCCAUGUGCUUGUCUUGUGGGUCGGUAGGUCGUUGGCUGACUGACG [Sensor-V1 #97] (Eterna round: R97, puzzle: Sensor, turn-off variant 1)

Result:
1: 20.8; 2: 13.4

Give apparent KD of MS2 coat protein for each of the items listed below.
1. AAGUAGACAGUGAGGAUAUUGGUGGAAUGACACAUUAAGAAGGUACAUGAGGAUCACCCAUGUGGGUAAUGUCG [Brourd's EX4 #26] (Eterna round: R97, puzzle: Brourd's mod of Exclusion 4)
2. CAGUGCGUAGGAUAUACGAGGGCCCUUUAUUGUUGAUAAUGACAUGAGGAUCACCCAUGUAGAAGGGCGUCAUG [Eternabot (L1) Solution 45] (Eterna round: R97, puzzle: Exclusion 2)
3. UUCUAUUCAGGAUAUACAUGAGGAUCACCCAUGUGAUUUGCCUCGCGGAAGACUAGACGUAGAAGGGAGUCCCU [Eternabot (L2) Solution 7] (Eterna round: R97, puzzle: Exclusion 3)

Result:
1: 45.8; 2: 24.8; 3: 111

Give apparent KD of MS2 coat protein for each of the items listed below.
1. CACCGUUACUGAGGAUAUCGUACAUGAGGAUCACCCAUGUAAUAAAUGAGAAUUUCGGAUGUAUGCGAGAAGGCAGGAAUCGGC [Ostracism 36 - Jieux - Exclusion NG 2] (Eterna round: R96, puzzle: Exclusion NG 2)
2. UAAGAUUACCGAGGAUAUGGUAGUACAUAUUAACCAGAAGGCGGACUCAACAUGAGGAUCACCCAUGUAUAAAGGGUAUUAGGU [JR_ExcNG1_Sub042] (Eterna round: R96, puzzle: Exclusion NG 1)
3. CCCAGUUAGUGAGGAUAUCCUACAUGAGGAUCACCCAUGUAAUAAAUGAGGAUUUCGGGUGUCUAGGAGAAGGCACGGAUAGGC [Ostracism 24 - Jieux - Exclusion NG 2] (Eterna round: R96, puzzle: Exclusion NG 2)
4. ACCUCACAUGAGGAUCACCCAUGUCAGGAUAUCUAAUGUAGUCGCGUUCCCGACGCUAAGAGAAGGGACAUUAA [EX1 #34] (Eterna round: R97, puzzle: Exclusion 1)

Result:
1: 32.2; 2: 60.3; 3: 44.8; 4: 14.1

----------
For each entry below, report its apparent KD of MS2 coat protein value.
tested on: MS2 coat protein; assay: apparent KD of MS2 coat protein; designed switch direction (-1 OFF switch, 1 ON switch): 1; higher = weaker reporter binding; conditions: input ligand: microRNA oligo, concentration not stated
Give bare numbers, in nM.

Consider the reported apparent KD of MS2 coat protein for these sequences:
monomer_sequence: CUGAGCGAUCAAGGAUAUCACGUCGAUUAGACGUGAGAAGGUGAUCCAUACAUGAGGAUCACCCAUGUAUAACAUGAAGCUCAG [SSNG1/8-A2] (Eterna round: R96, puzzle: Same State NG 1)
apparent KD of MS2 coat protein, nM: 507
//
monomer_sequence: GAGGGACAGACCAACAUGAGGAUCACCCAUGUCCUCGCAGUUCAGGAUAUCUGGAGGAAGAAGAAAGAGAAGGGAAGGUGAACC [AK SSNG3-V2-35] (Eterna round: R96, puzzle: Same State NG 3)
apparent KD of MS2 coat protein, nM: 65.3
//
monomer_sequence: GGAGCCGGCCUAGGAUAUUUCAUAAAUUAACAUGAGGAUCACCCAUGUAGGCCAGAAGGCCUUGGGAAGAAGGAGGUCGGCUCC [Loop Effect - U27,U28] (Eterna round: R96, puzzle: Same State NG 2)
apparent KD of MS2 coat protein, nM: 37.7
//
monomer_sequence: GGAGCCAAGGCAGGAUAUUCAAAACAUGAGGAUCACCCAUGUGGGUAAAAGGCCAGAAGGCCUUGGGAGAAGGGCCAUGGCUCG [Xeonanis - 13 mod12] (Eterna round: R96, puzzle: Same State NG 2)
apparent KD of MS2 coat protein, nM: 9.02

Task: Which apparent KD of MS2 coat protein is reported for this sequence? GUUACAUGAGGAUCACCCAUGUAUGUGUGGGAGUAAGUGUCUUAGGAUAUCUGUUAUUGAAUUUAAGAGAAGGAAGAUUGUUGU [JMF's solution 37] (Eterna round: R96, puzzle: Same State NG 3)
Result: 59.5

----------
tested on: K4 kissing-loop RNA reporter; test: apparent KD of K4 kissing-loop reporter; higher = weaker reporter binding; details: Eterna round: R107; input ligand: theophylline 20 uM;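 further: bound reporter read as fluorescence of individual clusters on recovered sequencing chips by microscopy, with normalized cluster intensities fitted with a binding model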
For each entry below, report its apparent KD of K4 kissing-loop reporter value.
Numbers only, in nM.

monomer_sequence: AUGGCACCUGCGGCCGCCACUCACUCCGGGCUGCUGGCCAGUGAUGUUGGUACGGCUGCCGGUUAGAGGACCGGGCAGGAGCUAA [Rienisdite]
apparent KD of K4 kissing-loop reporter (nM): 97.8

Give apparent KD of K4 kissing-loop reporter for each of the items listed below.
1. UGUGUUUACCUGACUCAGUGAUGUUGAGAAGGAGCGUGGGAAACCACAGGUAGGUCGCUCAACCUAAAUUCAGGUGAGCACUAAA
2. GGGAGGAUUAAAUAAAUAAAUAAGAUAGAUACCAGUUGAGAGUAAGGCCCUUGGCAGCUAAAACGAGUGAUGUUCGAGUAAAUCC [Default title]
3. GUUACGCAUGGAAGGAGCGCUCUCAUAUUUAAUAACACAGUGAUGUUGUGAAUUUAUAUAAAGCAGGUAGGUCGCCAUGUGUAAC [Ex Arginine B K4 6]
4. GGCCGGAAGGCGAGCGCUCCCACUCCGGAAGGAGCGCCCGUAAGGGCAGGUAGGUCGCCGGAGUGAUGUUCCGGUGGAGGGCUCG [#2 Exclusion - Arginine A Attempt #21 (Inspired by Omei)]
5. CCUAUCUGUUACGAUACCAGUCAAUGAUAUUUUAUCAAUGCCCUCACCGAGUGAUGUUCGGACCCUUGGCAGCGUCUGGGAUAGG [tyygpimullin]
6. CCAGAAUAAUGAAGAUGAUAAAUUACUGAAGGAGCGCAUAUAGUUGCAGGUAGGUCGCGGUGAAUAAGUAUAGUGAUGUUAUACC [SSArgA.Ad]

Result:
1: 303; 2: 147; 3: 276; 4: 302; 5: 153; 6: 260

----------
tested on: MS2 coat protein; assay: apparent KD of MS2 coat protein; higher = weaker reporter binding; conditions: Eterna round: R107; input ligand: theophylline 20 uM
endpoint_name: apparent KD of MS2 coat protein (nM)
One number for each entry, in nM.

Consider the reported apparent KD of MS2 coat protein for these sequences:
monomer_sequence: UGGGUACAUGAGGAUCACCCAUGUACUGAAGGAGCGAGAAUUAUCUCAGGUAGGUCGCAGACAUGAGGAUCACCCAUGUAGUGGG [Exclusion Arginine A GF 13]
study_target: MS2 coat protein
value_unit: nM
apparent KD of MS2 coat protein: 22.7

monomer_sequence: ACGAACGAUAGUGAUACCAGACGAACAUGAGGAUCACCCAUGUUAUACACAUGGUUUAUUGUCCCUUGGCAGCACUUUAAGUUCG [JR_ExcTheophyB_Sub006]
study_target: MS2 coat protein
value_unit: nM
apparent KD of MS2 coat protein: 139

monomer_sequence: GAUGAUAUUGCAGAUACCAGACACAUGAGGAUCACCCAUGUCGCUGGGUUACUGGGUCGUGUCCCUUGGCAGCUGCGAUAUCAUC [Belize]
study_target: MS2 coat protein
value_unit: nM
apparent KD of MS2 coat protein: 89.2

Give apparent KD of MS2 coat protein for each of the items listed below.
1. GCUAUGGCUGGAAGGAGCGUGAAUUUCAGCGAACAUGAGGAUCACCCAUGUAAGGAUAUGGCACAGGUAGGUCGCUAGCCAUAGC [#19 Same State - Arginine B]
2. GGGUCAGGCGCGGCCGCCACUGCGGUGAUGUGACAUGAGGAUCACCCAUGUUGUCAUGUGGCACAUAGGACCGGGCGCCUGGCCC [#1 Exclusion - Tryptophan B Attempt #7 (HarryS)]
3. AGUCUUAAUGGAAGGAGCGCAGUCAUAACAUGAGGAUCACCCAUGUCGAGGUGAGGGUCAUUGCAGGUAGGUCGCCAUACUAAGA [Same State - Arginine B (Freestyle 3)]
4. ACCUACACGGAAACGUGUAGAAGUAAUGAUACCAGCAUGGAAACAUGCCCUUGGCAGCGUUACAUGAGGAUCACCCAUGUAUGUU [#01 Exclusion-TheophyllineA]
5. UGUUAUGUGGGAAGGAGCGCAUACUUCACAUGAGGAUCACCCAUGUCAAGACGUGAGUCAGUGCAGGUAGGUCGCCUAGUUAAGA [Same State - Arginine B (Freestyle 17)]
6. CCGGGCCCGGGAGACCGGGCCCGGACUGAAGGAGCGGGAAUAAACCCAGGUAGGUCGCAGAGAUCCACAUGAGGAUCACCCAUGU [!0.U]
7. ACCUUACAUGAGGAUCACCCAUGUCGUGAUACCAGAAACCACGUAUUCCCUUGGCAGCACACCCGUGAUGAGAUUGUCGGUUUUG [theeternabot_sameState_MS2_Theo_A_43]

Result:
21.2
41.5
220
19.9
75.1
51.7
86.3

Task: Which apparent KD of MS2 coat protein is reported for this sequence? AGACCCUUCACGGCCGCCACUCAUUUUAAGUAGAGAGAGUACAUGAGGAUCACCCAUGUGAGAGAGAGGACCGGGUGAGAUAUUA [ss-trypB-0]
Result: 21.4
